Endpoint: MIC. System: Escherichia coli NIHJ JC-2. Items follow.
Write the answer as a number in µg/mL, unit excluded.

The cases that follow already have their MIC on record.
compound | MIC, µg/mL
CCCN1CCN(c2c(F)cc3c(=O)c(C(=O)O)cn4c3c2OCN4C)CC1 | 0.1
CN1COc2c(N3CCC(Cl)C3)c(F)cc3c(=O)c(C(=O)O)cn1c23 (centres unmarked) | 1.56
CN1COc2c(N3CCN(Cc4ccc(N)cc4)CC3)c(F)cc3c(=O)c(C(=O)O)cn1c23 | 0.2
CN1COc2c(N3CCN(C(=O)CCC(=O)O)CC3)c(F)cc3c(=O)c(C(=O)O)cn1c23 | 1.56
CCN(C)CC1CCN(c2c(F)cc3c(=O)c(C(=O)O)cn4c3c2OCN4C)C1 (centres unmarked) | 0.39

Lab entry: Escherichia coli NIHJ JC-2 assay, compound CN1COc2c(N3CCC(O)C3)c(F)cc3c(=O)c(C(=O)O)cn1c23 (centres unmarked) , MIC = 0.39

The compound "CN1COc2c(N3CCOCC3)c(F)cc3c(=O)c(C(=O)O)cn1c23" on Escherichia coli NIHJ JC-2: MIC was 0.1

I looked up CN1CCN(c2c(F)cc3c(=O)c(C(=O)O)cn4c3c2OC(CO)N4C)CC1 (centres unmarked) and its MIC for Escherichia coli NIHJ JC-2 was 0.78

Form: item "CCN1CCN(c2c(F)cc3c(=O)c(C(=O)O)cn4c3c2OCN4C)CC1" ; test system Escherichia coli NIHJ JC-2; MIC: 0.05

Log: Escherichia coli NIHJ JC-2, compound "C=CCN1CCN(c2c(F)cc3c(=O)c(C(=O)O)cn4c3c2OCN4C)CC1" , MIC = 0.1

* * *

Test system: Klebsiella pneumoniae FDA PCI 602
Threshold 0.4 mg/L. MIC below it: Satisfied. MIC at it or above: Not satisfied.

Here's what some known entries look like.
molecule | measured-target | discrete-label
CC(=O)CCN1CCN(c2c(F)cc3c(=O)c(C(=O)O)cn4c3c2OCN4C)CC1 | Klebsiella pneumoniae FDA PCI 602 | Satisfied
CN1COc2c(N3CCNC(=O)C3)c(F)cc3c(=O)c(C(=O)O)cn1c23 | Klebsiella pneumoniae FDA PCI 602 | Not satisfied
CN1COc2c(N3CCC(N)C3)c(F)cc3c(=O)c(C(=O)O)cn1c23 (centres unmarked) | Klebsiella pneumoniae FDA PCI 602 | Satisfied
CN1COc2c(N3CCN(C(=O)CCC(=O)O)CC3)c(F)cc3c(=O)c(C(=O)O)cn1c23 | Klebsiella pneumoniae FDA PCI 602 | Not satisfied

Attention now shifts to the item below.
Consider the molecule CC1Oc2c(N3CCNCC3)c(F)cc3c(=O)c(C(=O)O)cn(c23)N1C (centres unmarked) . Is its MIC strictly less than 0.4 mg/L?
Not satisfied

* * *

System: Enterococcus faecalis NR 2943
So basically, if MIC comes in under 6 µg/mL it's Condition met, and if it's 6 µg/mL or more it's Condition not met.

compound | discrete-label
CCNC1CCN(c2c(F)cc3c(=O)c(C(=O)O)cn4c3c2OCN4C)CC1 | Condition not met
CC1CN(c2c(F)cc3c(=O)c(C(=O)O)cn4c3c2OCN4C)CCN1 (centres unmarked) | Condition not met
CN1COc2c(N3CCC(Cl)C3)c(F)cc3c(=O)c(C(=O)O)cn1c23 (centres unmarked) | Condition met
CCN1CCN(c2c(F)cc3c(=O)c(C(=O)O)cn4c3c2OCN4C)CC1 | Condition not met

# check: MIC < 6 µg/mL for "COC1CCN(c2c(F)cc3c(=O)c(C(=O)O)cn4c3c2OCN4C)CC1"
Condition not met

Regarding "CN1COc2c(N3CCNCC3)c(F)cc3c(=O)c(C(=O)O)cn1c23" , kindly confirm whether its MIC is beneath 6 µg/mL.
Condition not met

Does this compound meet the criterion MIC < 6 µg/mL? CC1Oc2c(N3CCN(C)CC3)c(F)cc3c(=O)c(C(=O)O)cn(c23)N1C (centres unmarked)
Condition not met

Problem: For the compound "CN1COc2c(N3CCN(CS(=O)(=O)O)CC3)c(F)cc3c(=O)c(C(=O)O)cn1c23" , is MIC under 6 µg/mL?
Condition not met

Input CN1COc2c(N3CCC(O)C3)c(F)cc3c(=O)c(C(=O)O)cn1c23 (centres unmarked) ; condition: MIC strictly below 6 µg/mL. Does it hold?
Condition met

Say whether its MIC is strictly beneath 6 µg/mL. Entry: "CN1COc2c(N3CCN(CCO)CC3)c(F)cc3c(=O)c(C(=O)O)cn1c23"
Condition not met

Strictly below 6 µg/mL: is that where MIC of CN1COc2c(N3CCNC(c4ccccc4)C3)c(F)cc3c(=O)c(C(=O)O)cn1c23 (centres unmarked) sits?
Condition not met

Report whether reported MIC is lower than 6 µg/mL (strictly) for "CN1COc2c(N3CCN(C(=O)CCC(=O)O)CC3)c(F)cc3c(=O)c(C(=O)O)cn1c23"
Condition not met

MIC strictly < 6 µg/mL for this compound? CCNC1CCN(c2c(F)cc3c(=O)c(C(=O)O)cn4c3c2OCN4C)C1 (centres unmarked)
Condition not met

Bench note: check whether "CN1COc2c(N3CCC(N)CC3)c(F)cc3c(=O)c(C(=O)O)cn1c23" shows MIC below 6 µg/mL
Condition met

For this compound, is MIC lower than 6 µg/mL? COC1CCN(c2c(F)cc3c(=O)c(C(=O)O)cn4c3c2OCN4C)C1 (centres unmarked)
Condition met

Dear colleague, could you confirm whether MIC of "CN1COc2c(N3CCS(=O)(=O)CC3)c(F)cc3c(=O)c(C(=O)O)cn1c23" falls below 6 µg/mL? Thanks.
Condition not met

Determine whether this compound shows MIC lower than 6 µg/mL (ties excluded): CN1COc2c(N3CCC(N)C3)c(F)cc3c(=O)c(C(=O)OCOC(=O)C(C)(C)C)cn1c23 (centres unmarked)
Condition not met

* * *

This document collects log10(MIC) values reported for Enterobacter cloacae NR 2946.
Scale type: logarithmic (base 10). Underlying MIC unit: µg/mL.

compound | log10(MIC)
CC(=O)N1CCN(c2c(F)cc3c(=O)c(C(=O)O)cn4c3c2OCN4C)CC1 [Example 50] | 0.19
CN1COc2c(N3CCC(N)C3)c(F)cc3c(=O)c(C(=O)O)cn1c23 (stereo not drawn) [Example 30] | -1.89

log10(MIC) for Enterobacter cloacae NR 2946 with input CC1CN(c2c(F)cc3c(=O)c(C(=O)O)cn4c3c2OCN4C)CCN1 (stereo not drawn) [Example 7] equals -1.00

Bench note, Enterobacter cloacae NR 2946: CNC1CCN(c2c(F)cc3c(=O)c(C(=O)O)cn4c3c2OCN4C)CC1 [Example 34] , log10(MIC) reads -0.70

For the compound CC1Oc2c(N3CCNCC3)c(F)cc3c(=O)c(C(=O)O)cn(c23)N1C (stereo not drawn) [Example 25] , the measured log10(MIC) on Enterobacter cloacae NR 2946 was -0.11

# lookup: CN1COc2c(N3CCN(CC(=O)O)CC3)c(F)cc3c(=O)c(C(=O)O)cn1c23 [Example 45] on Enterobacter cloacae NR 2946, log10(MIC) = -0.70

// log10(MIC) (Enterobacter cloacae NR 2946) for CN1COc2c(-n3ccnc3)c(F)cc3c(=O)c(C(=O)O)cn1c23 [Example 56] = -1.30

Record CN1COc2c(N3CCS(=O)(=O)CC3)c(F)cc3c(=O)c(C(=O)O)cn1c23 [Example 39] has Enterobacter cloacae NR 2946 log10(MIC) equal to -0.11

Param item: CCNC1CCN(c2c(F)cc3c(=O)c(C(=O)O)cn4c3c2OCN4C)C1 (stereo not drawn) [Example 32] ; param system: Enterobacter cloacae NR 2946; output log10(MIC): -1.00

* * *

Tested on: Enterococcus faecalis NR 2943
assay-text: in vitro antibacterial activity, standard agar dilution method
Format: cell-based
condition-notes: NR2943, aerobic, read-out: minimum inhibitory concentration (MIC)
measurement-kind: MIC

Recorded MIC, per entry:
molecule | measured-target | MIC
CN1COc2c(N3CCN(Cc4ccc(N)cc4)CC3)c(F)cc3c(=O)c(C(=O)O)cn1c23 | Enterococcus faecalis NR 2943 | 1.56 µg/mL
CCN(C)CC1CCN(c2c(F)cc3c(=O)c(C(=O)O)cn4c3c2OCN4C)C1 (centres unmarked) | Enterococcus faecalis NR 2943 | 6.25 µg/mL

Input CN1COc2c(N3CCC(N)C3)c(F)cc3c(=O)c(C(=O)O)cn1c23 (centres unmarked) . Output MIC: 3.13 µg/mL

Quick note, MIC for "CC(=O)CN1CCN(c2c(F)cc3c(=O)c(C(=O)O)cn4c3c2OCN4C)CC1" landed at 12.5 µg/mL

Entry under test: "CN1COc2c(N3CCN(CCF)CC3)c(F)cc3c(=O)c(C(=O)O)cn1c23" . Its MIC was 12.5 µg/mL
